target: SARS-COV-2 RBD extracellular domain expressed with a C-terminal myc-myc-hexahistidine tag (SARS-COV-2 RBD-mmH) (SARS-CoV-2); assay: SPR Biacore, mAb captured on anti-hFc, RBD-mmH analyte, 37 C
readout: koff (s⁻¹)

mAb15166 (antibody, V domains shown) VH: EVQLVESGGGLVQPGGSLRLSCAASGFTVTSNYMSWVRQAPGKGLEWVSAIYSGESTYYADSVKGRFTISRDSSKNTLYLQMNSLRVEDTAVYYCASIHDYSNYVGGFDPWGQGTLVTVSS VL: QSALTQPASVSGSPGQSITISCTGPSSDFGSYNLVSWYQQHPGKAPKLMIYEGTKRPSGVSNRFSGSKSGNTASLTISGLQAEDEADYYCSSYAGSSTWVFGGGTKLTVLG; 0.0334
mAb15164 (antibody, V domains shown) VH: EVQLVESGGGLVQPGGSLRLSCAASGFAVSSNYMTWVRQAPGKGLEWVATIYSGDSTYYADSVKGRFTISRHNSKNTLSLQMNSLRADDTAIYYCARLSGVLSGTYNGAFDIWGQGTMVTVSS VL: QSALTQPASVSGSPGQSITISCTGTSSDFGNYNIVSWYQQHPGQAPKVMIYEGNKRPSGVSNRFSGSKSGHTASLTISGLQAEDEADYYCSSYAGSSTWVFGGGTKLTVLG; 0.00179
mAb15162 (antibody, V domains shown) VH: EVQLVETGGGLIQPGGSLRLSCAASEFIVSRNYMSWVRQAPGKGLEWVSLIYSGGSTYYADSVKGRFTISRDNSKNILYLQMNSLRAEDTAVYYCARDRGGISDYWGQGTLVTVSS VL: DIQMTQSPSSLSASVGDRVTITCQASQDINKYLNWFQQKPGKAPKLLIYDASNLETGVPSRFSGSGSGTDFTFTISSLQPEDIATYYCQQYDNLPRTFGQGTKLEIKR; 0.00299
